Assay: FBMN analysis of short peptides in small intestine contents and serum after oral DHG
Settings: small intestine contents, 120 min after oral DHG, C57 mice; FBMN feature intensity, peptides smaller than 690 Da
Peptide text beside a SMILES is read from it.
# Peptide signal (feature intensity) in the small intestine, 120 min per record follows
measured-endpoint: Peptide signal (feature intensity) in the small intestine, 120 min

compound	value-observed
CC[C@H](C)[C@H](NC(=O)[C@@H](N)Cc1cnc[nH]1)C(=O)O [His-Ile] (H-His-Ile-OH)	2.72E+07
N[C@@H](Cc1cnc[nH]1)C(=O)N[C@@H](Cc1c[nH]c2ccccc12)C(=O)O [His-Trp]	1.97E+06
CCC(C)C(N)C(=O)N1CCCC1C(=O)O (stereo not drawn) [Ile-Pro] (H-Ile-Pro-OH; configuration not given here)	1.48E+07
CC(C)[C@H](N)C(=O)N[C@@H](Cc1ccccc1)C(=O)O [Val-Phe] (H-Val-Phe-OH)	0.00E+00
NC(=O)C[C@H](N)C(=O)N[C@@H](Cc1ccccc1)C(=O)O [Asn-Phe] (H-Asn-Phe-OH)	5.41E+06
CSCC[C@H](NC(=O)[C@@H](N)C(C)C)C(=O)O [Val-Met] (H-Val-Met-OH)	0.00E+00
CC(C)CC(NC(=O)C1CCCN1)C(=O)O (stereo not drawn) [Pro-Leu] (H-Pro-Leu-OH; configuration not given here)	0.00E+00
CCC(C)C(N)C(=O)NC(C(=O)O)C(C)O (stereo not drawn) [Ile-Thr] (H-Ile-Thr-OH; configuration not given here)	0.00E+00
CC(C)CC(NC(=O)C(NC(=O)C(N)C(C)O)C(C)C)C(=O)O (stereo not drawn) [Thr-Val-Leu] (H-Thr-Val-Leu-OH; configuration not given here)	0.00E+00
CC(C)C[C@H](NC(=O)CNC(=O)[C@@H](N)CC(C)C)C(=O)O [Leu-Gly-Leu] (H-Leu-Gly-Leu-OH)	0.00E+00
CC[C@H](C)[C@H](N)C(=O)N[C@H](C(=O)N[C@@H](CCCCN)C(=O)O)[C@@H](C)CC [Ile-Ile-Lys] (H-Ile-Ile-Lys-OH)	0.00E+00
N[C@@H](Cc1c[nH]c2ccccc12)C(=O)N[C@@H](CCC(=O)O)C(=O)O [Trp-Glu] (H-Trp-Glu-OH)	0.00E+00
CSCC[C@H](N)C(=O)N[C@@H](Cc1ccccc1)C(=O)O [Met-Phe] (H-Met-Phe-OH)	5.87E+05
NC(Cc1ccc(O)cc1)C(=O)NC(Cc1ccc(O)cc1)C(=O)O (stereo not drawn) [Tyr-Tyr] (H-Tyr-Tyr-OH; configuration not given here)	0.00E+00
CC(C)[C@H](NC(=O)[C@@H](N)CCC(=O)O)C(=O)N[C@@H](Cc1ccccc1)C(=O)O [Glu-Val-Phe] (H-Glu-Val-Phe-OH)	4.18E+05
